Biological target: HGXPRTase from T. foetus (Tritrichomonas foetus, UniProt P51900)
Construct: made in house; host or cells: Escherichia coli
Sequence (P51900 1-183): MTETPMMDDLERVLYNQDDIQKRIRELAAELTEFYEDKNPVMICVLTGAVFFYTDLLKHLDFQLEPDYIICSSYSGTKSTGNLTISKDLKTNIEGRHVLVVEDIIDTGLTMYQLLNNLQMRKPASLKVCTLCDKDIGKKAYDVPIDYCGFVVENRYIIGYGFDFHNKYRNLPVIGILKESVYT
Assay: Enzyme assay, [14C]-guanine to GMP conversion, T. foetus HGXPRTase
Format: biochemical
Settings: Table 4, compounds of Formula II; recombinant enzyme, 10% DMSO, 37° C., 5 min, pH 6.8; read-out: IC50 TFH (HGXPRTase from T. foetus)
Measure Name: IC50 (µM)

Previously resolved entries follow.
O=C(Nc1ccc2c(c1)C(=O)OC2)c1ccc(Cl)cc1 [(II)7] = 380
O=C1NC(=O)c2cc([N+](=O)[O-])c(SCc3ccc(Cl)cc3)cc21 [(II)8] = 425
COc1ccc(Cl)cc1NC(=O)c1ccc2c(c1)C(=O)OC2=O [(II)6] = 22
O=C(Nc1ccc(Cl)cc1Cl)c1ccc2c(c1)C(=O)OC2=O [(II)5] = 80
O=C(Nc1cccc([N+](=O)[O-])c1)c1ccc2c(c1)C(=O)OC2=O [(II)1] = 300

1 = CC(=O)Nc1ccc(NC(=O)c2ccc3c(c2)C(=O)OC3=O)cc1 [(II)2]
2 = COc1ccc([N+](=O)[O-])cc1NC(=O)c1ccc2c(c1)C(=O)OC2=O [(II)4]
// pick min by IC50: 1 , 2 Answer with the label corresponding to your selection. 2
(2: 70 µM, 1: 140 µM)

---

Readings of pIC50 for the listed molecules
Biological target: Human HGPRTase (Homo sapiens, UniProt P00492)
Sequence (P00492 whole entry): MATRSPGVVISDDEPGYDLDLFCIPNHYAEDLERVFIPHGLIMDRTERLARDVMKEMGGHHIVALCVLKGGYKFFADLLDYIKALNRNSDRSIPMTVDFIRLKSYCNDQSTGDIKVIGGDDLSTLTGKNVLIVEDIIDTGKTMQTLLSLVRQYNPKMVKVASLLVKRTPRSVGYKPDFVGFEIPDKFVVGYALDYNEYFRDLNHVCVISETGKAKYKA
Experiment: Enzyme assay, [14C]-guanine to GMP conversion, human HGPRTase
Assay type: biochemical
Settings: Table 2, compounds of Formula I; recombinant enzyme, 10% DMSO, 37° C., 5 min, pH 6.8; read-out: IC50 HH (Human HGPRTase)
pIC50: −log10 of the molar value.

O=C1Nc2ccccc2C1=NN=Cc1cc(Br)ccc1O = < 3.00
O=C1Nc2ccccc2C1=NN=Cc1ccc([N+](=O)[O-])cc1 = < 3.00
CC(Oc1ccc(Cl)cc1Cl)C(=O)NN=C1C(=O)Nc2ccc(Br)cc21 (stereo not shown) = < 3.00

Now consider a different molecule.
I'd like to know its pIC50. The molecule in question is O=C1Nc2ccccc2C1=NNc1ccc([N+](=O)[O-])cc1 3.70

---

Target: HGXPRTase from T. foetus (Tritrichomonas foetus, UniProt P51900)
Construct: made in house; host or cells: Escherichia coli
Assay: Enzyme assay, [14C]-guanine to GMP conversion, T. foetus HGXPRTase
Type: biochemical
Settings: Table 2, compounds of Formula I; recombinant enzyme, 10% DMSO, 37° C., 5 min, pH 6.8; read-out: IC50 TFH (HGXPRTase from T. foetus)
Measure Name: IC50 (µM)

Consider the following illustrative entries.
CC(Oc1ccc(Cl)cc1Cl)C(=O)NN=C1C(=O)Nc2ccc(Br)cc21 (stereo not shown) = 85
O=C1Nc2ccccc2C1=NNc1ccc([N+](=O)[O-])cc1 = 240
O=C(COc1ccc([N+](=O)[O-])cc1)NN=C1C(=O)Nc2ccccc21 = 180
COc1ccc(CCNC=C2C(=O)Nc3ccccc32)cc1 = 200

a = O=C1Nc2ccccc2C1=NN=Cc1ccc(Cl)cc1
b = O=C1Nc2ccc(Br)cc2C1=NN=Cc1ccc(Cl)c(Cl)c1
c = O=C1Nc2ccccc2C1=NN=Cc1cc(Br)ccc1O
Rank order required: IC50, descending. Give the order by naming the labels one after another as requested. c, b, a

A = COc1ccc(CC(=O)N/N=C2\C(=O)Nc3ccc(Br)cc32)cc1OC
B = O=C1Nc2ccccc2C1=NN=Cc1ccc([N+](=O)[O-])cc1
Min IC50? A | B Your choice should be expressed through its label. B

---

Target: GPRTase from G. lamblia (Giardia duodenalis)
Test: Enzyme assay, [14C]-guanine to GMP conversion, G. lamblia GPRTase
Type: biochemical
Conditions: Table 4, compounds of Formula II; recombinant enzyme, 10% DMSO, 37° C., 5 min, pH 6.8; read-out: IC50 GLG (GPRTase from G. lamblia)
pIC50: −log10 of the molar value.
Recorded pIC50 by entry

Some entries whose results are on file:
O=C(Nc1cccc([N+](=O)[O-])c1)c1ccc2c(c1)C(=O)OC2=O = < 3.00
O=C(Nc1ccc(Cl)c(Cl)c1)c1ccc2c(c1)C(=O)OC2=O = 4.52

Entry O=C(Nc1ccc2c(c1)C(=O)OC2)c1ccc(Cl)cc1 : reported pIC50 = ? < 3.00

---

Target: GPRTase from G. lamblia (Giardia duodenalis, UniProt Q24973)
Sequence (Q24973 1-230): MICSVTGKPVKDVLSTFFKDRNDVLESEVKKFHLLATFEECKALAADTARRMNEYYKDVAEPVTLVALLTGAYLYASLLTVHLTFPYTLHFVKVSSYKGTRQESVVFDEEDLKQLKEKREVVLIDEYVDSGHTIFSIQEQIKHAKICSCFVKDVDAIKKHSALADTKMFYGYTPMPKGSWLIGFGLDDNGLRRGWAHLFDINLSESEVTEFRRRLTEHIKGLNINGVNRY
Experiment: Enzyme assay, [14C]-guanine to GMP conversion, G. lamblia GPRTase
Type: biochemical
Conditions: Table 2, compounds of Formula I; recombinant enzyme, 10% DMSO, 37° C., 5 min, pH 6.8; read-out: IC50 GLG (GPRTase from G. lamblia)
Measured IC50, listed per entry for reference.

O=C1Nc2ccccc2C1=NN=Cc1cc(Cl)cc(Cl)c1O = > 1000 µM
COc1ccc(CCNC=C2C(=O)Nc3ccccc32)cc1 = > 1000 µM
O=C1Nc2ccccc2C1=NN=Cc1cc(Br)ccc1O = > 1000 µM
O=C1Nc2ccccc2C1=NNc1ccc([N+](=O)[O-])cc1 = > 1000 µM
COc1ccc(CC(=O)N/N=C2\C(=O)Nc3ccc(Br)cc32)cc1OC = 90 µM

May I ask what IC50 has been recorded for O=C(COc1ccc([N+](=O)[O-])cc1)NN=C1C(=O)Nc2ccccc21 ? > 1000 µM

Reported IC50, compound O=C1Nc2ccc(Br)cc2C1=NN=Cc1ccc(Cl)c(Cl)c1 : ____ > 1000 µM

Tell me the measured IC50 of O=C1Nc2ccccc2C1=NN=Cc1ccc([N+](=O)[O-])cc1 , please. > 1000 µM

Request the reported IC50 associated with O=C1Nc2ccccc2C1=NN=Cc1ccc(Cl)cc1 > 1000 µM

Can you look up the measured IC50 of CC(Oc1ccc(Cl)cc1Cl)C(=O)NN=C1C(=O)Nc2ccc(Br)cc21 (stereo not shown) for me? 30 µM

---

Molecular target: HGXPRTase from T. foetus (Tritrichomonas foetus)
Construct: made in house; host or cells: Escherichia coli
Test: Enzyme assay, [14C]-guanine to GMP conversion, T. foetus HGXPRTase
Type: biochemical
Details: read-out: IC50 TFH (HGXPRTase from T. foetus)
Measure Name: IC50 (µM)
Write the number in µM without appending the unit.

Need IC50 of O=C(Nc1ccc(Cl)c(Cl)c1)c1ccc2c(c1)C(=O)OC2=O [(II)3] , thanks. 50

---

Target: GPRTase from G. lamblia (Giardia duodenalis, UniProt Q24973)
Assay: Enzyme assay, [14C]-guanine to GMP conversion, G. lamblia GPRTase
Format: biochemical
Details: Table 4, compounds of Formula II; recombinant enzyme, 10% DMSO, 37° C., 5 min, pH 6.8; read-out: IC50 GLG (GPRTase from G. lamblia)
Listing of entries alongside the reported IC50.

For orientation, consider the following solved cases.
O=C(Nc1ccc(Cl)cc1Cl)c1ccc2c(c1)C(=O)OC2=O [(II)5] = 200 µM
CC(=O)Nc1ccc(NC(=O)c2ccc3c(c2)C(=O)OC3=O)cc1 [(II)2] = > 1000 µM

Please examine the following record next.
Query: IC50; subject: O=C1NC(=O)c2cc([N+](=O)[O-])c(SCc3ccc(Cl)cc3)cc21 [(II)8] > 1000 µM
